# test_name: Solubilities of esters in typical solvents / appearance of samples in water
# Type: physicochemical
# condition_set: water; 25° C.

compound	solubility
CC(=O)OCCN1C(=O)N(CO)C(=O)C1(C)C [Acetic Methylolated Ester]	> 100 mg/mL

====

# test_name: Solubilities of esters in typical solvents / appearance of samples in water
# Format: physicochemical
# condition_set: 25° C.

record_smiles	Solubility in isopropyl alcohol
CCCCCCCCCCCC(=O)OCCN1C(=O)N(CO)C(=O)C1(C)C	S (>10 g/100 g Solvent)
CCCCCCCCCCCCCCCCCC(=O)OCCN1C(=O)N(CO)C(=O)C1(C)C	S (>10 g/100 g Solvent)
CC(=O)OCCN1C(=O)N(CO)C(=O)C1(C)C	S (>10 g/100 g Solvent)
CCCCCCCC/C=C\CCCCCCCC(=O)OCCN1C(=O)N(CO)C(=O)C1(C)C	S (>10 g/100 g Solvent)
